- method-summary: NCI Yeast Anticancer Drug Screen. Data for the bub3 strain (AID 167)
- test-parameters: S. cerevisiae bub3 mutant strain, at 5.0 µM (retest, dose inferred, filed as 0.5), hits give high values
- Protocol: Growth inhibition of yeast strains with defined genetic alterations is measured as a screen for potential anti-cancer activity. Selected strains with alterations in DNA damage repair or cell cycle control were exposed to compounds and growth inhibition was measured relative to vehicle treated controls. The strain used in this assay is bub3
The panel holds about 79,000 compounds, 15% with a hit somewhere; the sample as a whole holds those more often.
measurement-type: growth inhibition (%)

[
  {
    "compound": "O=C1CNCCCN2CCN(CCCNCC(=O)Nc3ccc(cc3)S(=O)(=O)c3ccc(cc3)NC(=O)CNCCCN3CCN(CCCNCC(=O)Nc4ccc(cc4)S(=O)(=O)c4ccc(cc4)N1)CC3)CC2",
    "result": -3
  },
  {
    "compound": "COc1ccc(N=NC(C(=O)c2ccccc2)C(=O)c2ccccc2)cc1",
    "result": -3
  },
  {
    "compound": "COc1ccnc2c1C(=O)c1nc3ccccc3c3ccnc-2c13",
    "result": -15
  },
  {
    "compound": "CCCCCN=Cc1c(O)c(O)c(C(C)C)c2cc(C)c(-c3c(C)cc4c(C(C)C)c(O)c(O)c(C=NCCCCC)c4c3O)c(O)c12",
    "result": -2
  },
  {
    "compound": "CCCCCCCCCCCCCCCCCCOC(=O)Nc1ccc(C)c(NC(=O)OCCCCCCCCCCCCCCCCCC)c1",
    "result": -3
  },
  {
    "compound": "OC(/C=C/c1ccccc1)(c1ccccc1)c1nc2ccccc2s1 (centres undefined)",
    "result": 6
  },
  {
    "compound": "CCCCc1cc2c(cc1O)CCC1C2CC[C@@]2(C)C1CC[C@@H]2O (some centres undefined)",
    "result": -27
  },
  {
    "compound": "O=C(c1cccs1)N(C(=S)N1CCN(c2ccccn2)CC1)c1ccccc1",
    "result": -2
  },
  {
    "compound": "CNc1ccc([N+](=O)[O-])cc1",
    "result": -1
  }
]

---

- method-summary: NCI Yeast Anticancer Drug Screen. Data for the mlh1 rad18 strain (AID 175)
- test-parameters: S. cerevisiae mlh1 rad18 strain growth inhibition; at 50.0 µM (retest, dose inferred, filed as 5.0)
This is part of a sample that, as a whole, favours compounds with a hit. Of some 79,000 tested, about 15% had one in any assay. Calls of active or inactive are those of the source. Rule as the data show it: active = growth inhibition above about 70%; inactive = the rest.
Classes used: class 1 for active, class 0 for inactive

[
  {
    "compound": "CCCCCCNC(=S)N/N=C(\\C)c1ccccn1",
    "assigned-category": "class 1"
  },
  {
    "compound": "CC(=O)C(=C(I)I)c1ccccc1",
    "assigned-category": "class 1"
  },
  {
    "compound": "S=c1[nH]c(-c2ccccc2)cs1",
    "assigned-category": "class 1"
  },
  {
    "compound": "c1ccc(-c2cc(CN3CCOCC3)c(-c3ccccc3)o2)cc1",
    "assigned-category": "class 1"
  },
  {
    "compound": "COC1/C=C\\C=C(/C)C(=O)NC2=CC(=O)C(N)=C(CC(C)CC(OC)C(O)C(C)C=C(C)C1OC(N)=O)C2=O (configuration not stated)",
    "assigned-category": "class 1"
  },
  {
    "compound": "O=C1/C(=N/N=C(c2ccccc2)c2ccccc2)c2ccccc2-c2ccccc21",
    "assigned-category": "class 0"
  },
  {
    "compound": "CCOC(=O)C(=O)Nc1nc2c(s1)C(=O)c1ccccc1C2=O",
    "assigned-category": "class 1"
  },
  {
    "compound": "c1ccc2c(c1)ccc1ncccc12",
    "assigned-category": "class 0"
  },
  {
    "compound": "ClCc1ccccc1Cc1ccccc1",
    "assigned-category": "class 1"
  },
  {
    "compound": "O=[N+]([O-])c1ccccc1CC(c1c[nH]c2ccccc12)c1c[nH]c2ccccc12",
    "assigned-category": "class 1"
  },
  {
    "compound": "CCCCCCCCCCCCOC(=O)C[n+]1cccc(C(N)=O)c1",
    "assigned-category": "class 1"
  },
  {
    "compound": "CC1CCCC(C(O)(C(=O)O)C2CCCC(C)C2)C1 (configuration not stated)",
    "assigned-category": "class 1"
  }
]
